Where do these numbers come from? They come from paper PMC11499995.

System: mNeonGreen (Branchiostoma lanceolatum, UniProt A0A1S4NYF2, C173I/S175A/W191I)
Sequence (A0A1S4NYF2 25-260 C173I/S175A/W191I): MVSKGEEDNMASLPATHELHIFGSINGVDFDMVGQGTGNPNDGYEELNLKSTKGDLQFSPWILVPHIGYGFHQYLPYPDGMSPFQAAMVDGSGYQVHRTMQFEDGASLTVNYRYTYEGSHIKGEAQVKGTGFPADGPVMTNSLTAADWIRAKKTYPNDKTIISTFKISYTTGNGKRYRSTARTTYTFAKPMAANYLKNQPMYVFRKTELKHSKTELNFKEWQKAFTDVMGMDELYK
Assay Summary: fluorescence quenching titration, purified protein
Measured Attribute: Kd (mM)
Numeric only. Scale: mM

Recorded Kd for O=S(=O)(O)O [sulfate] , please?
33
